# Tested on: biotinyl-Met-oxazolone
# TEST_SUMMARY: self-aminoacylation, catalytic enhancement (BMO) (fold over background); higher = more active; k-Seq, kA / k0A0; sequences stand for … in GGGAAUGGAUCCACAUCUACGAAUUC…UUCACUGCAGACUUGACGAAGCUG
This sample holds only a part of the variants without activity.
Label scheme for self-aminoacylation: lower than 2 is F, 2 and above is T.

See these solved cases before continuing.
AUUACCCUGGUCUUCGUGUGA [Fam2.1 aminoacylation ribozyme variant]	F
CUACUUCAAACCAUCGUUCUG [Fam1A.1 aminoacylation ribozyme variant]	F
CUACUUCAAACAAUCGCCCUG [Fam1A.1 aminoacylation ribozyme variant]	F
CAACUUCAAACAGUCGGUCUG [Fam1A.1 aminoacylation ribozyme variant]	F
UCACACUUCAAGCAAUCAGUC [Fam1B.1 aminoacylation ribozyme variant]	F
CUGCUUCAAACAAUCGGUGUG [Fam1A.1 aminoacylation ribozyme variant]	T
UUUCACCUAGGUCAUCGGCUG [Fam2.2 aminoacylation ribozyme variant]	F
AUUCACCUAGGUGAUCGGGUA [Fam2.2 aminoacylation ribozyme variant]	T

Request: API: above_or_equal(metric=self-aminoacylation, cutoff=2) for item AUUACCCAGGUCAGCGAGUGA [Fam2.1 aminoacylation ribozyme variant]
Response: T

Request: API: above_or_equal(metric=self-aminoacylation, cutoff=2) for item AUUCUGCUAGGUCAUCGGGUG [Fam2.2 aminoacylation ribozyme variant]
Response: T

Request: API: above_or_equal(metric=self-aminoacylation, cutoff=2) for item CCACACCUCCAGCAAUCGGUC [Fam1B.1 aminoacylation ribozyme variant]
Response: F

Request: API: above_or_equal(metric=self-aminoacylation, cutoff=2) for item AUUCACGUAGGUCCUCGGGUG [Fam2.2 aminoacylation ribozyme variant]
Response: T

Request: API: above_or_equal(metric=self-aminoacylation, cutoff=2) for item AUUACUCUGGUCAUCGAGGGA [Fam2.1 aminoacylation ribozyme variant]
Response: T

Request: API: above_or_equal(metric=self-aminoacylation, cutoff=2) for item AUUUCCCUAGGUCAUCGGGUG [Fam2.2 aminoacylation ribozyme variant]
Response: T
